These entries and their values trace back to ChEMBL document CHEMBL1201862.

protocol_notes: HIV-1 AD8 envelope cell-cell fusion blockers – cherry-pick, dose response (AID 652062);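 also: luciferase signal from cell-cell fusion driven by HIV-1 clade B AD8 Env; potency is for inhibitors of fusion seen as a drop in luminescence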
Assay type: functional, cell-based
Calls of active or inactive are those of the source. No rule for the calls is given here.
Please provide measured AC50 for the entries that follow.

O=C(Nc1cccn(Cc2c(Cl)cccc2Cl)c1=O)c1ccc(Cl)cc1    8.74 µM (active)
Cc1nn(Cc2ccc(Cl)c(Cl)c2)c(C)c1NC(=O)c1cc(-c2ccc3c(c2)OCO3)on1    56 µM (active)

Could I get AC50 for every one of these entries?
1. Cc1ccc(S(=O)(=O)N(C)C[C@H]2Oc3cc(-c4cccc(F)c4)ccc3S(=O)(=O)N([C@@H](C)CO)C[C@H]2C)cc1
2. COc1ccc(CCC(C)NCc2cc(OC)cc(OC)c2)cc1 (stereo unspecified)
3. CC(=O)N(C)c1ccc(OCC(O)Cn2c3ccc(Cl)cc3c3cc(Cl)ccc32)cc1 (stereo unspecified)
4. O=C(C[C@H]1C[C@H]2c3cc(NC(=O)C4CCC4)ccc3O[C@H]2[C@H](CO)O1)NCc1ccc2c(c1)OCO2

Solution:
6.67 µM (active)
14.1 µM (active)
4.49 µM (active)
4.08 µM (active)
